pKi: −log10 of the molar value.
Several publications report pKi on Tyrosine-protein kinase JAK3 (Homo sapiens); those values are gathered here.

compound: Nc1nn2cc(-c3cccnc3N3CCOCC3)cnc2c1-c1ccccn1
pKi: < 5.30
//
compound: C[C@H](Nc1nc(-c2c[nH]c3ncncc23)nc(N2CCCC2)n1)C(=O)NCC(F)(F)F
pKi: < 5.30
//
compound: Nc1nn2cc(Cl)cnc2c1-c1ccccn1
pKi: < 5.30
//
compound: Nc1nn2cccnc2c1-c1cc(NCc2ccccc2OC(F)(F)F)ncn1
pKi: 7.00 to 8.00
//
compound: O=C(c1cc(-c2ncnc3[nH]cc(Cl)c23)c[nH]1)N(CCC(F)(F)F)CC1CCC1
pKi: 6.30 to 7.00
//
compound: C#CCOc1nc(N[C@@H](C)c2ccc(F)cc2)cc(-c2c(N)nn3cccnc23)n1
pKi: 7.00 to 8.00
//
compound: CCCN(CCO)C(=O)c1cccc(-c2cnc3c(-c4ccccn4)c(N)nn3c2)n1
pKi: < 5.30
//
compound: C[C@H](Nc1nc(-c2c[nH]c3ncncc23)nc(N2CCOCC2)n1)C(=O)NCC(F)(F)F
pKi: < 5.30
//
compound: Fc1cccc(-c2cnoc2-c2c[nH]c3ncc(C4=CCC(N5CCOCC5)CC4)cc23)c1F (centres unmarked)
pKi: > 6.70
//
compound: CCOC(=O)N1CCN(C(=O)c2ccc(-c3cnc4c(-c5ccccn5)c(N)nn4c3)nc2)CC1
pKi: 5.30 to 6.30
//
compound: Nc1nn2cc(CCCNCC3CCCO3)cnc2c1-c1ccccn1 (centres unmarked)
pKi: < 5.30
//
compound: CC(C)(Nc1nc(-c2ccc(=O)[nH]c2)ncc1F)C(=O)NCC(F)(F)F
pKi: 4.30 to 5.00
//
compound: N#CCCN(CC1CCCO1)C(=O)c1cc(-c2ncnc3[nH]ccc23)c[nH]1 (centres unmarked)
pKi: 6.30 to 7.00
//
compound: NC1NN2C=C(c3cccc(CN4CCCNCC4)c3)C=NC2=C1c1ccccn1 (centres unmarked)
pKi: < 5.30
//
compound: CN(c1ccnc(-c2c[nH]c3ncncc23)n1)C1(C(=O)NCC(F)(F)F)CC1
pKi: > 6.30
//
compound: CC(C)(CC(=O)O)CC(=O)Nc1nc(-c2ncnc3[nH]ccc23)cs1
pKi: 6.30 to 7.00
//
compound: CSCCCOc1nc(N[C@@H](C)c2ccc(F)cc2)cc(-c2c(N)nn3cccnc23)n1
pKi: 7.00 to 8.00
